Entry source: PubChem BioAssay

# Tested on: Sam68 (KHDRBS1)
# protocol notes: compounds binding KHDRBS1 protein – biochemical, small-molecule microarray, 635 nm fluorescence, primary screen (AID 1125);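 further: score merges 667 nm channel intensity with signal to noise over triplicate slides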
# run parameters: higher = more signal
Answer Not satisfied if composite z-score is under 0.9, and Satisfied if it is 0.9 or more.

Is it the case that `Cc1c(NC(=O)/C(C#N)=C/c2cccc([N+](=O)[O-])c2)c(=O)n(-c2ccccc2)n1C` has composite z-score reaching or exceeding 0.9?
Satisfied

Now this one: `CC#CC(=O)Oc1ccc(Br)cc1C=CC(=O)OCC`
Not satisfied

Now this one: `O=C1O[C@@H](c2ccccc2)[C@@H](c2ccccc2)N2[C@@H](c3ccc(OCCO)cc3)[C@]3(C(=O)Nc4ccc(C#CC5=CCCCC5)cc43)[C@@H](C(=O)N3CCCCCCC3)[C@H]12`
Satisfied

Now this one: `O=C1N(CCS(=O)(=O)c2ccccc2)c2ccccc2[C@@H]2OC(c3ccc(OCCCO)cc3)=N[C@]12Cc1ccccc1`
Satisfied

###

Field: z-score. Provide a value for each of the molecules that follow.
# protocol notes: blockers of DNA damage checkpoint Chk1 activation – imaging, HeLa, hydroxyurea, phospho-Chk1 antibody, percent positive cells, primary screen (AID 1186)
# run parameters: hydroxyurea-induced phospho-Chk1 immunofluorescence imaging, higher = more signal
Activity calls are given as the source filed them. No rule for the calls is given here.

Please give the measured z-score for this molecule: CCOc1cc(C(O)C2C=CC3C(=O)N(c4ccccc4)C(=O)C3N2Nc2ccc(C(C)C)cc2)ccc1O (stereo unspecified)
0.415 (inactive)

Now this one: `COc1ccc([C@H]2C[C@H]3C(I)=C[C@@H]2C(=O)[C@]32CO2)cc1`
0.125 (inactive)

Now this one: O=C1NC(=O)C2C1C=CC(C(O)c1ccc(I)cc1)N2Nc1ccc(Cl)cc1Cl (stereo unspecified)
0.0215 (inactive)

Now this one: CS(=O)(=O)CCOC(=O)C1=CC(CCCO)=CC(C2CC2)N(Cc2cc3c(cc2Br)OCO3)C=C1C(=O)OCCS(C)(=O)=O (stereo unspecified)
-1.19 (inactive)

Now this one: `COCC(=C=CC[C@H](O)c1ccccc1OCCO)CCO`
0.387 (inactive)

Now this one: `Cc1ccc(S[C@]2(C(=O)O)CC(=O)N(C(C)C)[C@@H]2c2ccc(CO)cc2)cc1`
-0.696 (inactive)

###

Field: z-score. Provide a value for each of the compounds that follow.
# protocol notes: FRG1 expression reporter modulators in myotubes – cell-based, C2C12 myotubes, firefly/Renilla luciferase, luminescence, FRG1 inhibition for FSHD, primary screen (AID 1084)
# run parameters: FRG1 promoter luciferase, higher = more signal, called active from +8 up or from −8 down
Provide a numeric answer; units are not to be included.

Please give the measured z-score for this compound: CN1C(=O)C2C=CC(C(O)c3ccc(F)cc3)N(N(c3ccccc3)c3ccccc3)C2C1=O (centres undefined)
-0.368

Now this one: `COc1ccc(C#Cc2ccc3c(c2)[C@]2(C(=O)N3)[C@H](c3ccc(O)cc3)N3[C@H](c4ccccc4)[C@H](c4ccccc4)OC(=O)[C@H]3[C@@H]2C(=O)N2CCc3cc(OC)c(OC)cc3C2)cc1`
1.46

Now this one: `C[N+](C)(C)CCCC[C@@H]1NC(=O)[C@@H]2C[C@H](C(=O)NCCCCCCNC(=O)CS)[C@H](c3ccc(O)cc3)N2C1=O`
-0.338

Now this one: `COc1ccccc1CN1C(=O)c2ccccc2[C@@]2(Cc3ccccc3N(CCCN(C)C)C2=O)[C@@H]1c1ccc(CO)cc1`
0.0544

Now this one: `CCOC(=O)C1=CC[C@H]2C(=O)N(c3ccccc3)C(=O)[C@@H]12`
-0.775

Now this one: `[N-]=[N+]=Nc1ccccc1C[C@@]1(C(=O)N2CCCCC2)N=C(c2ccc(OCCCO)cc2)O[C@@H]1c1ccccc1`
-4.6

Now this one: `CCCCCCc1nc(-c2ccc(-c3ccc(Cl)c(Cl)c3)o2)c(C)c2c1[Si](C(C)C)(C(C)C)OC2`
0.333

Now this one: O=C1C2C=CC(C(O)c3ccc4c(c3)OCO4)N(Nc3ccc([N+](=O)[O-])cc3)C2C(=O)N1c1ccccc1 (centres undefined)
-0.383

Now this one: `COCCOC(=O)N1C(=O)[C@@]2(c3ccccc31)[C@H](C(=O)N1CCCCCCC1)[C@H]1C(=O)O[C@H](c3ccccc3)[C@H](c3ccccc3)N1[C@@H]2c1ccc(OCCO)cc1`
-1.64

###

# system: Carbonic anhydrase 2 (Homo sapiens) (UniProt P00918)
# protocol notes: compounds binding carbonic anhydrase 2 – biochemical, small-molecule microarray, Alexa647-labelled CAII, profiling panel (AID 1122)
# run parameters: CAII-A647 binding fluorescence, higher = more signal
Field: composite z-score. Provide a value for each of the compounds that follow.
Provide a numeric answer; units are not to be included.

Please give the measured composite z-score for this compound: `CCCCC(=C=CC[C@@H](O)c1cccc(OCCO)c1)C[C@@H](O)c1ccccn1`
0.7

Now this one: `CC(C)[Si](C#CCCCC#N)(Oc1ccccc1Br)C(C)C`
0.508

Now this one: `C=C(CCCC)/C(=C/C[C@H](OC(C)=O)c1ccccc1OCCO)c1cnc2ccccc2c1`
0.5

Now this one: `CC(=O)NCCCC[C@@H]1NC(=O)[C@H]2C[C@@H](C(=O)NCCCCCNC(=O)CS)[C@@H](c3ccc(O)cc3)N2C1=O`
0.704

Now this one: `COCCCNC(=O)[C@]1(Cc2ccccc2)N=C(c2ccc(OCCCO)cc2)O[C@@H]1c1ccccc1CN=[N+]=[N-]`
0.694

###

# system: Torsin-1A (Homo sapiens)
# protocol notes: TOR1A wild-type binding on microarray – cell lysate, small-molecule microarray, lysate, 635/667 nm, primary screen (AID 1149)
# run parameters: COS7 hTOR1A-WT lysate, 635 nm fluorescence, higher = more signal
Field: composite z-score. Provide a value for each of the compounds that follow.

Please give the measured composite z-score for this compound: OCCCC1=CC(C2CC2)N(Cc2cccc(OC(F)(F)F)c2)CC1 (centres undefined)
-0.176

Now this one: `C=C(CCCC)C(=O)CC[C@H](OC(=O)c1cccnc1)c1ccc(OCCO)cc1`
0.471

Now this one: `COC(=O)[C@H](Cc1ccccc1)N[C@H](/C=C/C1CC1)[C@@H](O)Cc1ccccc1`
-0.795

Now this one: CCCCC(O)C1C=CC2C(=O)N(C)C(=O)C2N1N1CCCCC1 (centres undefined)
0.0748

###

# protocol notes: blockers of DNA damage checkpoint Chk1 activation – imaging, HeLa, hydroxyurea, phospho-Chk1 nuclear intensity, primary screen (AID 1187); further: test concentration not given here
# run parameters: hydroxyurea-induced phospho-Chk1 immunofluorescence imaging, higher = more signal
Answer false (0) if z-score is under 0.2, and true (1) if it is 0.2 or more.

Is it the case that O=C1C2C=CC(C(O)COCc3ccccc3)N(Nc3ccc([N+](=O)[O-])cc3)C2C(=O)N1c1ccccc1 (stereo not given) has z-score reaching or exceeding 0.2?
true (1)

Now this one: `CCCCC(=C=CC[C@@H](O)c1cccc(OCCO)c1)C[C@@H](O)c1ccccn1`
false (0)

Now this one: `CC#CC(=O)Oc1ccc(Br)cc1C=CC(=O)OCC`
false (0)

Now this one: N#Cc1ccc(C(O)C2C=CC3C(=O)N(c4ccccc4)C(=O)C3N2Nc2ccccc2F)cc1 (stereo not given)
false (0)

Now this one: `COc1ccc([Si](C)(C)[C@@H]2[C@@H](CCn3cc([C@H](O)c4ccccc4)nn3)O[C@]3(C(=O)N(Cc4cccc(N5CCC5=O)c4)c4ccccc43)[C@H]2C)cc1`
false (0)

###

# system: NADPH oxidase 5 (Homo sapiens)
# protocol notes: compounds shifting NOX5 Amplex Red fluorescence – cell-based, HEK293-NOX5, NOX inhibitor project, primary screen (AID 1161)
# run parameters: HEK293-NOX5, ionomycin, 45 min, higher = more signal
Answer false if z-score is under -0.6, and true if it is -0.6 or more.

Is it the case that `CC(C)CN1C(=O)[C@@]2(c3ccc([N+](=O)[O-])cc3)CC(=O)N(C3CCCCC3)[C@@H]2c2ccc(CO)cc21` has z-score reaching or exceeding -0.6?
true

Now this one: `Cc1ccc(S(=O)(=O)N2C[C@@H](C(=O)O)[C@H](Sc3ccccc3)C[C@H]2c2ccccc2)cc1`
true

Now this one: `COc1ccc(CCNC(=O)[C@@]2(C)c3ccccc3C(=O)N(c3ccc(C)cn3)[C@H]2c2ccc(CO)cc2)cc1`
false

Now this one: O=C1C2C=CC(C(O)c3ccc4c(c3)OCO4)N(Nc3ccc([N+](=O)[O-])cc3)C2C(=O)N1c1ccccc1 (stereo not drawn)
false

Now this one: `COc1cc2c(cc1O)C=[N+](Cc1cc3c(cc1Br)OCO3)CC2`
false

Now this one: `O=C1O[C@H](c2ccccc2)[C@H](c2ccccc2)N2[C@H]1[C@@H](C(=O)NC[C@H](O)c1ccccc1)[C@]1(C(=O)Nc3ccccc31)[C@H]2c1ccc(O)cc1`
true

Now this one: `C=C(CCCC)C(=O)CC[C@H](OC(=O)c1cccnc1)c1ccc(OCCO)cc1`
false
